- assay_explanation: Cmax in C57BL/6 mouse at 100 mg/kg, po bid for 20 days
- Assay type: ADME, organism-based
- Parameters: dose 100 mg/kg, route oral
- applied_conditions: in vivo
measurement_label: Cmax (µM)
Output spec: scalar in µM, unitless text.

In: Cmax for `COc1nc(Nc2cc(S(C)(=O)=O)ccc2N[C@@H](c2cccc(Cl)c2F)c2ncccc2F)nc(OC)n1` ?
Out: 12

* * *

Reported IC50 values for the following compounds.
- system_under_test: Histone-lysine N-methyltransferase, H3 lysine-79 specific (Homo sapiens, UniProt Q8TEK3)
- Sequence (Q8TEK3 whole entry, the tested form may be a part): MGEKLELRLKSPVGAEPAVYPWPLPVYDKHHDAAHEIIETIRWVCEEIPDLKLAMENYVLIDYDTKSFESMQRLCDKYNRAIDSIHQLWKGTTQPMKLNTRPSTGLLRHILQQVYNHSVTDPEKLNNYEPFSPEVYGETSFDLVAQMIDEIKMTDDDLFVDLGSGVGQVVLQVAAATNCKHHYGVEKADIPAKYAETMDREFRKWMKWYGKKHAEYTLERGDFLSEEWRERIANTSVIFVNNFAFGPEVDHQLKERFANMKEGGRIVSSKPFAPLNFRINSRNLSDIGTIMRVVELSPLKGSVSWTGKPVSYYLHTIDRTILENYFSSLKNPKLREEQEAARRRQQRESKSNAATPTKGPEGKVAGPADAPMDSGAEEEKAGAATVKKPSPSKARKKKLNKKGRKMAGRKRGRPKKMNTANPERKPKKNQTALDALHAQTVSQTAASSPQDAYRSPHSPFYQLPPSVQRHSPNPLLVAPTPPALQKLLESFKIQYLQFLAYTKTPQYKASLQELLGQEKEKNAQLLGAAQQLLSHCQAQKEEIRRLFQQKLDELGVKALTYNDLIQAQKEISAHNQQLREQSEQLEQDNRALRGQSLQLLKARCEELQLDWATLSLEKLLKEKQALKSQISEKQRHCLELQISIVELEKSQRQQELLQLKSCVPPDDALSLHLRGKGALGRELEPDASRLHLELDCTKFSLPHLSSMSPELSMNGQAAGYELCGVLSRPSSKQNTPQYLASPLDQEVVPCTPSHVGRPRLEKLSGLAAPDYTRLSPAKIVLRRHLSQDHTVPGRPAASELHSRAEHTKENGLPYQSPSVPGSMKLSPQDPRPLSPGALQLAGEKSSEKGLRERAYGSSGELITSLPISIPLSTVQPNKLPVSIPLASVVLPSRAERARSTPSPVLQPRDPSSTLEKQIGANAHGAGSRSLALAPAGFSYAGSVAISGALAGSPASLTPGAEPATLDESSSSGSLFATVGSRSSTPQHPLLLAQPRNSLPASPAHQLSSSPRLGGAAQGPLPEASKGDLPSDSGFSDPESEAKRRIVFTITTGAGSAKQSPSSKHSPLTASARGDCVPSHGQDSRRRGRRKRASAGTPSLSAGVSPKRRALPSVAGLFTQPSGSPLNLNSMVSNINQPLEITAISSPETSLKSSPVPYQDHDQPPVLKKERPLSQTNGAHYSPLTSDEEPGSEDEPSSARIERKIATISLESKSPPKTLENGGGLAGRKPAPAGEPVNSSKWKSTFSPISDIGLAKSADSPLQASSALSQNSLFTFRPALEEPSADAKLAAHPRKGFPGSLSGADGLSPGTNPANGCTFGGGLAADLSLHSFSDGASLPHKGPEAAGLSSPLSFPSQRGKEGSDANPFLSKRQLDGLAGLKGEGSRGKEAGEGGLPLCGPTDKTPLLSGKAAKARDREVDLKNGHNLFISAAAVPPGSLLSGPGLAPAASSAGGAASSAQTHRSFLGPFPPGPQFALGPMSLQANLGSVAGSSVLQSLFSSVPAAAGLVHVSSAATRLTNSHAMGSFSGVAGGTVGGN
- assay_explanation: Inhibition of 0.5 nM DOT1L (2 to 416 residues) (unknown origin) using biotinylated nucleosome as substrate and [3H]SAM as co-factor preincubated for 30 mins followed by substrate and cofactor addition and measured after 90 mins by scintillation proximity assay
Output spec: scalar in nM, unitless text.

Some solved entries appear below for comparison.
NS(=O)(=O)c1ccc(NC(c2ccccc2)c2ccccc2)c([N+](=O)[O-])c1; 8500
CS(=O)(=O)c1ccc(N[C@H](c2cccc(Cl)c2)c2ccccn2)c(Nc2ncccn2)c1; 22800
CS(=O)(=O)c1ccc(N[C@@H](c2cccc(Cl)c2F)c2ncccc2F)c(Nc2ncccn2)c1; 16
CS(=O)(=O)c1ccc(N[C@H](c2ccccn2)c2cccc(Cl)c2F)c(Nc2nccc(C(N)=O)n2)c1; 3.9
CS(=O)(=O)c1ccc(N[C@H](c2ccccn2)c2cccc(Cl)c2F)c(Nc2ncccn2)c1; 97
CS(=O)(=O)c1ccc(NC(c2cccc(Cl)c2)c2ccccn2)c([N+](=O)[O-])c1 (racemic); 4600

Now for the compound whose IC50 we want.
In: IC50 for `CS(=O)(=O)c1ccc(N[C@@H](c2cccc(Cl)c2)c2ccccn2)c(Nc2ncccn2)c1` ?
Out: 270

Data provenance is ChEMBL document CHEMBL4406923.
